Target: T1, PDZRN3_1, Q9UPQ7
T1 sequence (Q9UPQ7 244-349, limits assumed, looked up): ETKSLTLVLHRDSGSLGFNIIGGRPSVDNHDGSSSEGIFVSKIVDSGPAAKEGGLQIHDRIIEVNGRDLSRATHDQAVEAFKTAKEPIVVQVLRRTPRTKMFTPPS
Assay: holdup assay
Parameters: key: below the threshold = too weak to quantify, mostly under pKd 3.1 to 4
Settings: plain residues with an end cap or a label only (N-terminal biotin on a linker: ado-ado)
assay-readout: pKd

INSERT INTO assay_data (binder, recorded_value) VALUES
  ('ILRKSTTTTV [PRR16, Q569H4]', 'below the threshold'),
  ('DRIQSCLSDA [SBF1, O95248]', 'below the threshold'),
  ('RFQQRMQTHV [KIRREL1, Q96J84]', 'below the threshold');
